system: Staphyloccus aureus X1.1; assay: MIC, standard agar-dilution assay (Table IX); assay type: cell-based, Staphylococcus aureus; conditions: Staphylococcus aureus, read-out: MIC
Readings of MIC for the listed compounds
Write the value in µg/mL as a bare number.

Before answering, review these 4 worked examples.
CCC1OC(=O)CC(O)C(C)C(OC2OC(C)C(O)C(N(C)C)C2O)C(CCN2CCCC2)CC(C)C(=O)C=CC(C)=CC1COC1OC(C)C(O)C(OC)C1OC (centres unmarked) [Compound D1, 20-DH-DO-20-(pyrrolidin-1-yl)desmycosin]: 2
CCC1OC(=O)CC(O)C(C)C(OC2OC(C)C(O)C(N(C)C)C2O)C(CCN2CCCC(C(=O)N(CC)CC)C2)CC(C)C(=O)C=CC(C)=CC1COC1OC(C)C(O)C(OC)C1OC (centres unmarked) [Compound D15]: 2
CCC1OC(=O)CC(O)C(C)C(OC2OC(C)C(O)C(N(C)C)C2O)C(CCN2CCC3CCCCC3C2)CC(C)C(=O)C=CC(C)=CC1COC1OC(C)C(O)C(OC)C1OC (centres unmarked) [Compound D29]: 0.5
CCC1OC(=O)CC(O)C(C)C(OC2OC(C)C(O)C(N(C)C)C2O)C(CCN2CC=C(c3ccccc3)CC2)CC(C)C(=O)C=CC(C)=CC1COC1OC(C)C(O)C(OC)C1OC (centres unmarked) [Compound D26]: 0.5

# evaluate next
MIC for CCC1OC(=O)CC(O)C(C)C(OC2OC(C)C(O)C(N(C)C)C2O)C(CCN2C[C@H](C)C[C@H](C)C2)CC(C)C(=O)C=CC(C)=CC1COC1OC(C)C(O)C(OC)C1OC (some centres unmarked) [Compound D34] ?
1

* * *

tested on: Staphylococcus epidermidis 222; assay: MIC, standard agar-dilution assay (Table IX); format: cell-based; conditions: read-out: MIC
Listed here: items and their measured MIC.
Provide the reading as a plain figure in µg/mL.

Which MIC is listed for CCC1OC(=O)CC(O)C(C)C(OC2OC(C)C(O)C(N(C)C)C2O)C(CCN2CCCCCCCC2)CC(C)C(=O)C=CC(C)=CC1COC1OC(C)C(O)C(OC)C1OC (stereo not drawn) ?
0.25

Also check CCC1OC(=O)CC(O)C(C)C(OC2OC(C)C(O)C(N(C)C)C2O)C(CCN2C3CCCCC3C3CCCCC32)CC(C)C(=O)C=CC(C)=CC1COC1OC(C)C(O)C(OC)C1OC (stereo not drawn)
0.25

Also need CCC1OC(=O)CC(O)C(C)C(OC2OC(C)C(O)C(N(C)C)C2O)C(CCN2CCCc3ccccc32)CC(C)C(=O)C=CC(C)=CC1COC1OC(C)C(O)C(OC)C1OC (stereo not drawn) , thanks.
0.25

* * *

test system: Staphylococcus epidermidis 222; assay: MIC, standard agar-dilution assay (Table IX); format: cell-based; details: read-out: MIC
Documented MIC across a set of compounds

Under Staphylococcus epidermidis 222: MIC value of CCC1OC(=O)CC(O)C(C)C(OC2OC(C)C(O)C(N(C)C)C2O)C(CCN2CCCCCC2)CC(C)C(=O)C=CC(C)=CC1COC1OC(C)C(O)C(OC)C1OC (centres unmarked) ?
0.12 µg/mL

Another compound to look at: CCC1OC(=O)CC(O)C(C)C(OC2OC(C)C(O)C(N(C)C)C2O)C(CCN2CC3(C)CC2CC(C)(C)C3)CC(C)C(=O)C=CC(C)=CC1COC1OC(C)C(O)C(OC)C1OC (centres unmarked)
0.5 µg/mL

Now the compound CCC1OC(=O)CC(O)C(C)C(OC2OC(C)C(O)C(N(C)C)C2O)C(CCN2CCC(c3ccccc3)CC2)CC(C)C(=O)C=CC(C)=CC1COC1OC(C)C(O)C(OC)C1OC (centres unmarked)
0.25 µg/mL

Okay, and CCC1OC(=O)CC(O)C(C)C(OC2OC(C)C(O)C(N(C)C)C2O)C(CCN2CCCC3CCCCC32)CC(C)C(=O)C=CC(C)=CC1COC1OC(C)C(O)C(OC)C1OC (centres unmarked) ?
0.25 µg/mL

Continue with CCC1OC(=O)CC(O)C(C)C(OC2OC(C)C(O)C(N(C)C)C2O)C(CCN2CCCC23CCCCC3)CC(C)C(=O)C=CC(C)=CC1COC1OC(C)C(O)C(OC)C1OC (centres unmarked)
0.25 µg/mL

* * *

test system: Staphylococcus aureus V41; experiment: MIC, standard agar-dilution assay (Table IX); type: cell-based; conditions: Staphylococcus aureus V41, Penicillin-resistant strain, read-out: MIC
Catalogue of MIC values
Answer with the value and then the unit.

# count of solved cases: 5
CCC1OC(=O)CC(O)C(C)C(OC2OC(C)C(O)C(N(C)C)C2O)C(CCN2CCC(O)CC2)CC(C)C(=O)C=CC(C)=CC1COC1OC(C)C(O)C(OC)C1OC (stereo not shown): 8 µg/mL
CCC1OC(=O)CC(O)C(C)C(OC2OC(C)C(O)C(N(C)C)C2O)C(CCN2CCCCC2)CC(C)C(=O)C=CC(C)=CC1COC1OC(C)C(O)C(OC)C1OC (stereo not shown) [Compound D2, 20-DH-DO-20-(piperidin-1-yl)desmycosin]: 0.5 µg/mL
CCC1OC(=O)CC(O)C(C)C(OC2OC(C)C(O)C(N(C)C)C2O)C(CCN2CCC(Cc3ccccc3)CC2)CC(C)C(=O)C=CC(C)=CC1COC1OC(C)C(O)C(OC)C1OC (stereo not shown): 1 µg/mL
CCC1OC(=O)CC(O)C(C)C(OC2OC(C)C(O)C(N(C)C)C2O)C(CCN2CCCC23CCCCC3)CC(C)C(=O)C=CC(C)=CC1COC1OC(C)C(O)C(OC)C1OC (stereo not shown): 1 µg/mL
CCC1OC(=O)CC(O)C(C)C(OC2OC(C)C(OC3CC(C)(O)C(O)C(C)O3)C(N(C)C)C2O)C(CCN2CCCCCC2)CC(C)C(=O)C=CC(C)=CC1COC1OC(C)C(O)C(O)C1OC (stereo not shown): 8 µg/mL

Which value of MIC has been reported for CCC1OC(=O)CC(O)C(C)C(OC2OC(C)C(OC3CC(C)(O)C(O)C(C)O3)C(N(C)C)C2O)C(CCN2CCCCCCC2)CC(C)C(=O)C=CC(C)=CC1COC1OC(C)C(O)C(O)C1OC (stereo not shown) in the records?
4 µg/mL

Next: CCC1OC(=O)CC(O)C(C)C(OC2OC(C)C(O)C(N(C)C)C2O)C(CCN2CCCC2)CC(C)C(=O)C=CC(C)=CC1COC1OC(C)C(O)C(OC)C1OC (stereo not shown) [Compound D1, 20-DH-DO-20-(pyrrolidin-1-yl)desmycosin]
2 µg/mL

Entry to check: CCC1OC(=O)CC(O)C(C)C(OC2OC(C)C(OC3CC(C)(O)C(O)C(C)O3)C(N(C)C)C2O)C(CCN2CCCCCCC2)CC(C)C(=O)C=CC(C)=CC1COC1OC(C)C(O)C(OC)C1OC (stereo not shown)
4 µg/mL

Same question, CCC1OC(=O)CC(O)C(C)C(OC2OC(C)C(O)C(N(C)C)C2O)C(CCN2C3CCCCC3C3CCCCC32)CC(C)C(=O)C=CC(C)=CC1COC1OC(C)C(O)C(OC)C1OC (stereo not shown) this time
0.5 µg/mL

* * *

assay: Titratable groups in 66% aqueous DMF (Tables XIV-XVI); assay type: physicochemical; details: Titratable groups (first value)
Parameter Measured: pKa
Form rule: numeric answer, no unit written next to it.

CCC1OC(=O)CC(O)C(C)C(OC2OC(C)C(O)C(N(C)C)C2O)C(CCN2CCCCCC2)CC(C)C(=O)C=CC(C)=CC1COC1OC(C)C(O)C(O)C1OC (stereo not shown) [Compound L4]: 8
CCC1OC(=O)CC(O)C(C)C(OC2OC(C)C(O)C(N(C)C)C2O)C(CCN2CC3CCC(CC3)C2)CC(C)C(=O)C=CC(C)=CC1COC1OC(C)C(O)C(OC)C1OC (stereo not shown) [Compound D14]: 7.9
CCC1OC(=O)CC(O)C(C)C(OC2OC(C)C(O)C(N(C)C)C2O)C(CCN2CCCC3CCCCC32)CC(C)C(=O)C=CC(C)=CC1COC1OC(C)C(O)C(OC)C1OC (stereo not shown) [Compound D20]: 7.9

Fill in: pKa of CCC1OC(=O)CC(O)C(C)C(OC2OC(C)C(O)C(N(C)C)C2O)C(CCN2CCCC2)CC(C)C(=O)C=CC(C)=CC1COC1OC(C)C(O)C(OC)C1OC (stereo not shown) [Compound D1, 20-DH-DO-20-(pyrrolidin-1-yl)desmycosin] is ___
7.9

Also check CCC1OC(=O)CC(O)C(C)C(OC2OC(C)C(O)C(N(C)C)C2O)C(CCN2CCC(N3CCCCC3)CC2)CC(C)C(=O)C=CC(C)=CC1COC1OC(C)C(O)C(OC)C1OC (stereo not shown) [Compound D13]
6

// query: CCC1OC(=O)CC(O)C(C)C(OC2OC(C)C(O)C(N(C)C)C2O)C(CCN2CCCCCCC2)CC(C)C(=O)C=CC(C)=CC1COC1OC(C)C(O)C(O)C1OC (stereo not shown) [Compound L5]
7.8
